Can you tell me self-aminoacylation for the items I'm about to list?
system: biotinyl-Leu-oxazolone; assay: self-aminoacylation, catalytic enhancement (BLO) (fold over background); higher = more active; k-Seq, kA / k0A0; sequences stand for … in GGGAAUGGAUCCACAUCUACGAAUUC…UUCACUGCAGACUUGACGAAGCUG
Variants at the floor of the assay were thinned out.
No unit in the answer, only the number.

// query Record request: self-aminoacylation value, item AUUCACCUAUGUCAUCGGGCG [Fam2.2 aminoacylation ribozyme variant]
// result 2.87

// query Now try CUACUUCAGACAAUCGUUCUG [Fam1A.1 aminoacylation ribozyme variant] .
// result 0.512

// query Also, AUUUCUCUGGUCAUCGAGUGA [Fam2.1 aminoacylation ribozyme variant] please.
// result 5.82

// query Then AUUCAACUAGGUCAUCGCGUG [Fam2.2 aminoacylation ribozyme variant] ?
// result 13.6

// query Similarly, AUUACCCGGGUUAUCGAGUGA [Fam2.1 aminoacylation ribozyme variant] ?
// result 14.4

// query Subsequent entry: CCCCACCUCAAGCAAUCGGUC [Fam1B.1 aminoacylation ribozyme variant]
// result 1.48

// query For GUUCACCUAGGUAAUCGGGUG [Fam2.2 aminoacylation ribozyme variant] then?
// result 2.92

// query Moving on to AUUCACCUAGGUUAUCGGGGG [Fam2.2 aminoacylation ribozyme variant]
// result 2.29

// query Now give it for AACUUUGCUAAUAGGCGCAAG [Fam3.1 aminoacylation ribozyme variant] too.
// result 1.79

// query Next up: AUUAACCUAGGUCAGCGGGUG [Fam2.2 aminoacylation ribozyme variant]
// result 4.4

// query Now give it for AUUACCCUAGUCAUCGAGUGC [Fam2.1 aminoacylation ribozyme variant] too.
// result 1.35

// query // repeat for AUUACCCUGGUCAUCGAAUAA [Fam2.1 aminoacylation ribozyme variant] and report
// result 0.914

// query Try AUUCACUUAGGUCAACGGGUG [Fam2.2 aminoacylation ribozyme variant] next.
// result 4.92

// query Also need CGACUUCUAACAAUCGGUCUG [Fam1A.1 aminoacylation ribozyme variant] , thanks.
// result 0.917

// query Please do the same for UUUCACCUAGGUCAUGGGGUG [Fam2.2 aminoacylation ribozyme variant] as well.
// result 4.07

// query What about this sequence? CCACAGUUCAGGCAAUCGGUC [Fam1B.1 aminoacylation ribozyme variant]
// result 2.28

// query What do you have for AUGCACCUAGGUCACCGGGUG [Fam2.2 aminoacylation ribozyme variant] ?
// result 3.59
